Data origin, for the record: patent US11667649B2

Measured Ki accompanies every entry in the list below.
Target: ROS1-wt kinase domain (Homo sapiens)

>  <MOL>
CCn1ncc2c1-c1cnc(N)c(c1)O[C@H](C)c1cc(F)ccc1-c1nc(C)cn1C2

>  <TEST_SYSTEM>
ROS1-wt kinase domain (Homo sapiens)

>  <Ki>
< 0.05 µM

$$$$
>  <MOL>
CCc1nn(C)c2c1-c1cnc(N)c(c1)OCc1cc(F)ccc1-n1nc(C)cc1C2

>  <TEST_SYSTEM>
ROS1-wt kinase domain (Homo sapiens)

>  <Ki>
< 0.05 µM

$$$$
>  <MOL>
C[C@H]1Oc2cc(cnc2N)-c2c(C#N)ncn2Cc2ccncc2-c2ccc(F)cc21

>  <TEST_SYSTEM>
ROS1-wt kinase domain (Homo sapiens)

>  <Ki>
< 0.05 µM

$$$$
>  <MOL>
C[C@H]1Oc2cc(cnc2N)-c2c(CC(F)F)noc2Cc2cn(C)nc2-c2ccc(F)cc21

>  <TEST_SYSTEM>
ROS1-wt kinase domain (Homo sapiens)

>  <Ki>
< 0.05 µM

$$$$
>  <MOL>
CCn1nc(OC)c2c1-c1cnc(N)c(c1)O[C@H](C)c1cc(F)ccc1-c1nn(C)cc1C2

>  <TEST_SYSTEM>
ROS1-wt kinase domain (Homo sapiens)

>  <Ki>
< 0.05 µM

$$$$
>  <MOL>
CCn1ncc2c1-c1ccc(F)cc1[C@@H](C)Oc1cc(cnc1N)-c1c(cnn1C)C2

>  <TEST_SYSTEM>
ROS1-wt kinase domain (Homo sapiens)

>  <Ki>
< 0.05 µM

$$$$
>  <MOL>
CCn1ncc2c1-c1cnc(N)c(c1)O[C@H](C)c1cc(F)ccc1-c1nn(C(F)F)cc1C2

>  <TEST_SYSTEM>
ROS1-wt kinase domain (Homo sapiens)

>  <Ki>
< 0.05 µM

$$$$
>  <MOL>
CCn1ncc2c1-c1cnc(N)c(c1)O[C@H](C)c1cc(F)ccc1-n1nc(C(F)(F)F)cc1C2

>  <TEST_SYSTEM>
ROS1-wt kinase domain (Homo sapiens)

>  <Ki>
< 0.05 µM

$$$$

* * *

pKi: −log10 of the molar value.
The next entries give measured pKi for TRKA-wt kinase domain (Homo sapiens, UniProt P04629).

>  <COMPOUND>
CCc1nn(C)c2c1-c1cnc(N)c(c1)OCc1cc(F)ccc1-c1nc(C)sc1C2

>  <pKi>
6.30 to 7.30

$$$$
>  <COMPOUND>
CCn1ncc2c1-c1cnc(N)c(n1)OC(C)c1cc(F)ccc1-c1nccn1C2 (centres unmarked)

>  <pKi>
6.30 to 7.30

$$$$
>  <COMPOUND>
CCc1nn(C)c2c1-c1cnc(N)c(c1)O[C@H](C)c1cc(F)ccc1-c1nn(C)cc1C2

>  <pKi>
> 7.30

$$$$
>  <COMPOUND>
C[C@H]1Oc2cc(cnc2N)-c2c(CC(F)F)nn(C)c2Cc2cc(C(F)F)nn2-c2ccc(F)cc21

>  <pKi>
6.30 to 7.30

$$$$
>  <COMPOUND>
CCn1ncc2c1-c1cnc(N)c(c1)OCc1cc(F)ccc1-c1nccn1C2

>  <pKi>
< 6.30

$$$$
>  <COMPOUND>
CCn1nc(OC)c2c1-c1cnc(N)c(c1)O[C@H](C)c1cc(F)ccc1-c1nn(C)cc1C2

>  <pKi>
6.30 to 7.30

$$$$
>  <COMPOUND>
CCc1nn(C)c2c1-c1cnc(N)c(c1)OCc1cc(F)ccc1-n1nc(C)cc1C2

>  <pKi>
6.30 to 7.30

$$$$
>  <COMPOUND>
C[C@H]1Oc2cc(cnc2N)-c2c(C3CCC3)noc2Cc2cn(C)nc2-c2ccc(F)cc21

>  <pKi>
6.30 to 7.30

$$$$

* * *

Measured Ki accompanies every entry in the list below.
Biological target: ALK L1196M/G1202R kinase domain (Homo sapiens, UniProt Q9UM73, G1202R/L1196M)
Construct: TRKA-wt (1 nM, BPS Bio, 40280) kinase domains in buffer
Assay: Biochemical kinase assay, ALK L1196M/G1202R
Conditions: 2 mM ATP substrate solution, read-out: Ki^app ALK-L1196M-G1202R
QUANTITY_MEASURED: Ki

>  <COMPOUND>
CCn1nc(OC)c2c1-c1cnc(N)c(c1)O[C@H](C)c1cc(F)ccc1-c1nn(C)cc1C2

>  <QUANTITY_MEASURED>
Ki

>  <ENDPOINT_RESULT>
< 50 nM

$$$$
>  <COMPOUND>
CCn1ncc2c1-c1cnc(N)c(c1)O[C@H](C)c1cc(F)ccc1-c1nn(C)c(OC)c1C2

>  <QUANTITY_MEASURED>
Ki

>  <ENDPOINT_RESULT>
< 50 nM

$$$$
>  <COMPOUND>
C[C@H]1Oc2cc(cnc2N)-c2c(cnn2CC2CC2)Cc2cc(C(F)(F)F)nn2-c2ccc(F)cc21

>  <QUANTITY_MEASURED>
Ki

>  <ENDPOINT_RESULT>
< 50 nM

$$$$
>  <COMPOUND>
CCn1ncc2c1-c1cnc(N)c(c1)OCc1cc(F)ccc1-n1ncc(F)c1C2

>  <QUANTITY_MEASURED>
Ki

>  <ENDPOINT_RESULT>
< 50 nM

$$$$
>  <COMPOUND>
C[C@H]1Oc2cc(cnc2N)-c2c(c(Cl)nn2CC2CC2)Cc2cn(C)nc2-c2ccc(F)cc21

>  <QUANTITY_MEASURED>
Ki

>  <ENDPOINT_RESULT>
< 50 nM

$$$$
>  <COMPOUND>
CCn1ncc2c1-c1cnc(N)c(c1)OC(C)c1cc(F)ccc1-n1cncc1C2 (centres unmarked)

>  <QUANTITY_MEASURED>
Ki

>  <ENDPOINT_RESULT>
50 to 500 nM

$$$$
>  <COMPOUND>
CCc1noc2c1-c1cnc(N)c(c1)O[C@H](C)c1cc(F)ccc1-c1nncn1C2

>  <QUANTITY_MEASURED>
Ki

>  <ENDPOINT_RESULT>
50 to 500 nM

$$$$
>  <COMPOUND>
C[C@H]1Oc2cc(cnc2N)-c2c(CC(F)F)noc2Cc2cn(C)nc2-c2ccc(F)cc21

>  <QUANTITY_MEASURED>
Ki

>  <ENDPOINT_RESULT>
< 50 nM

$$$$

* * *

pKi: −log10 of the molar value.
The next entries give measured pKi for ROS1-wt kinase domain (Homo sapiens).

>  <MOLECULE>
CC1Oc2cc(cnc2N)-c2c(C#N)ncn2Cc2cnn(C)c2-c2ccc(F)cc21 (stereo not shown) [Compound 167]

>  <pKi>
> 7.30

$$$$
>  <MOLECULE>
C[C@H]1Oc2cc(cnc2N)-c2c(nn(C)c2C#N)Cc2ccnn2-c2ccc(F)cc21 [Compound 169]

>  <pKi>
> 7.30

$$$$
>  <MOLECULE>
Cc1cc2n(n1)-c1ccc(F)cc1[C@@H](C)Oc1cc(cnc1N)-c1c(c(C)nn1CC1CC1)C2 [Compound 141]

>  <pKi>
> 7.30

$$$$
>  <MOLECULE>
COc1cc2n(n1)-c1ccc(F)cc1[C@@H](C)Oc1cc(cnc1N)-c1c(c(C)nn1CC1CC1)C2 [Compound 124]

>  <pKi>
> 7.30

$$$$
